Test system: 32Dcl3 murine hematopoietic cells
assay.name: Irradiation survival assay (colony formation) in 32Dcl3 cells
Format: cell-based
conditions: cells irradiated, then placed in media containing 10 μM nitroxide, colonies after 7 d
Some compounds, each annotated with its measured Do, after irradiation.

compound	scale.unit	Do, after irradiation
CC(C)C[C@@H](/C=C/CC(=O)NC1[C@@H]2CC3C[C@H]1C[C@](C)(C2)N3[O])NC(=O)OC(C)(C)C (stereo partly shown)	Gy	1.3
CC(C)C[C@@H](/C=C/CC(=O)Nc1ccc2c(c1)C(C)(C)N([O])C2(C)C)NC(=O)OC(C)(C)C	Gy	1.4
CC(C)C[C@@H](/C=C/CC(=O)NC1CC(C)(C)N([O])C(C)(C)C1)NC(=O)OC(C)(C)C	Gy	1.2
CC(C)C[C@@H](/C=C/CC(=O)N[C@@H]1CC2CCC[C@@H](C1)N2[O])NC(=O)OC(C)(C)C	Gy	1.3
